subject-of-test: HLA-A*31:01
assay-notes: IEDB peptide-MHC binding, purified MHC/direct/fluorescence; filed as Kd, often an IC50 or EC50 that approximates it; bounds were set here for any values at or beyond the usual limits of such assays
test-conditions: source organism: Mycolicibacterium gilvum
pKd: −log10 of the molar value.
quantity-measured: pKd

// PHDPDFLVL : pKd value = ≤ 4.70

###

subject-of-test: HLA-A*26:01
assay-notes: IEDB peptide-MHC binding, purified MHC/direct/fluorescence; filed as Kd, often an IC50 or EC50 that approximates it; bounds were set here for any values at or beyond the usual limits of such assays
test-conditions: source organism: Brucella abortus
pKd: −log10 of the molar value.
quantity-measured: pKd

Observed pKd on HLA-A*26:01, entry SRIGAWASK , equals ≤ 4.70
